Cited source: ChEMBL document CHEMBL5620432

Target: Nociceptin receptor (Homo sapiens, UniProt P41146)
Sequence (P41146 whole entry): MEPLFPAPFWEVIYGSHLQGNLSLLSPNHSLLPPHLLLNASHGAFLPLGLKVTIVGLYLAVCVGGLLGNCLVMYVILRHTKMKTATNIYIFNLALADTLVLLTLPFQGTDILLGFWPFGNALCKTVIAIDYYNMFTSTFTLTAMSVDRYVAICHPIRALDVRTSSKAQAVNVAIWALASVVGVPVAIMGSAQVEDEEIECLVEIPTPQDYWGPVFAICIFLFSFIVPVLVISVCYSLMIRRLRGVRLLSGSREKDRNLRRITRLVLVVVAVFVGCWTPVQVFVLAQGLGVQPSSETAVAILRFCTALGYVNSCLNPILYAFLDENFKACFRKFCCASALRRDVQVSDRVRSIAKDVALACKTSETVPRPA
Experiment: Agonist activity at human NOP receptor expressed in CHO-K1 cells co-expressed with Galphai by cAMP assay
Format: functional, cell-based
I'd appreciate it if you could supply pEC50 values for the items below.
Answers are plain numbers, as −log10 of the molar value.

Solved entries (count: 8):
[[record]]
molecule = "Cc1cccc(CNC(=O)NCC(c2cccc(F)c2)N(C)C)c1 (centres undefined)"
quantity_name = "pEC50"
reported_value = 5.67

[[record]]
molecule = "CN(C)C(CNC(=O)Nc1ccc(Cl)c(Cl)c1)c1cccc(F)c1 (centres undefined)"
quantity_name = "pEC50"
reported_value = 7.43

[[record]]
molecule = "CN(C)C(CNC(=O)NCc1cccc(Cl)c1)c1cccc(F)c1 (centres undefined)"
quantity_name = "pEC50"
reported_value = 12.90

[[record]]
molecule = "CN(C)C(CNC(=O)NCCc1ccc(Cl)cc1)c1cccc(F)c1 (centres undefined)"
quantity_name = "pEC50"
reported_value = 9.21

[[record]]
molecule = "CN(C)C(CNC(=O)NCCc1ccccc1)c1cccc(F)c1 (centres undefined)"
quantity_name = "pEC50"
reported_value = 8.53

[[record]]
molecule = "CN(C)C(CNC(=O)NCCc1ccc(F)cc1)c1cccc(F)c1 (centres undefined)"
quantity_name = "pEC50"
reported_value = 12.90

[[record]]
molecule = "CN(C)C(CNC(=O)NCc1ccc(C(F)(F)F)cc1)c1cccc(F)c1 (centres undefined)"
quantity_name = "pEC50"
reported_value = 9.15

[[record]]
molecule = "CN(C)C(CNC(=O)NCc1ccc(OC(F)(F)F)cc1)c1cccc(F)c1 (centres undefined)"
quantity_name = "pEC50"
reported_value = 5.62


Provide the reported pEC50 of each entry below, same order.
1. CN(C)C(CNC(=O)NC1CCCC1)c1cccc(F)c1 (centres undefined)
2. CN1CCc2ccccc2C1CNC(=O)c1ccc(Cl)c(Cl)c1 (centres undefined)

1. 8.59
2. 9.77

Provide the reported pEC50 of each entry below, same order.
1. Cc1ccc(CCNC(=O)NCC(c2cccc(F)c2)N(C)C)cc1 (centres undefined)
2. CN(C)C(CNC(=O)NCCCc1ccccc1)c1cccc(F)c1 (centres undefined)
3. CN(C)C(CNC(=O)NCCc1ccc(C(F)(F)F)cc1)c1cccc(F)c1 (centres undefined)
4. CN(C)C(CNC(=O)NCc1cccc(OC(F)(F)F)c1)c1cccc(F)c1 (centres undefined)

1: 6.68; 2: 9.15; 3: 10.22; 4: 10.70
